Assay: Quantitative High-Throughput drug screen in 47 multiple myeloma cell lines against the NCATS MIPE library collection: EJM_DSMZ cell viability assay (AID 1918926; note: nearly all actives have a fitted effect of over 30% in size; note: potency is the fitted concentration of half-maximal effect)
Conditions: EJM myeloma cell viability, CellTiter-Glo ATP, 48 h; series mostly up to 45.8 µM
Results filed as inconclusive are left out. Activity calls are given as the source filed them. Calls come from the whole dose curve; as a rule, active = well fitted cell-killing curve with a large enough effect; inconclusive = small, poorly fitted or top-dose-only effect, or effect the other way; inactive = no such curve, though single readings can be large or run the other way.

MOL	Potency
COc1ccc(C(=O)c2c(C)n(CCN3CCOCC3)c3ccccc23)cc1	inactive
Cc1cc(SCc2sc(-c3ccc(C(F)(F)F)c(F)c3)nc2C)ccc1OCC(=O)O	inactive
C[C@@H]1O[C@@H](O[C@H]2C[C@@H](O)[C@]3(CO)[C@H]4[C@H](O)C[C@]5(C)[C@@H](C6=CC(=O)OC6)CC[C@]5(O)[C@@H]4CC[C@]3(O)C2)[C@H](O)[C@H](O)[C@H]1O	23.5 nM (active)

====

Conditions: Ebola virus entry cell assay, ratio channel
The source made the active and inactive calls. Calls come from the whole dose curve.
QUANTITY NAME: AC50

Would you please look over these solved cases?
> print(dat)
                                   compound    result.value
1          CN(C)CCCN1c2ccccc2Sc2ccc(Cl)cc21  10 µM (active)
2                          NNc1nncc2ccccc12        inactive
3                  COc1ccc(-c2cc(=S)ss2)cc1        inactive
4  CC(C(=O)O)c1cccc(C(=O)c2ccccc2)c1 (centres undefined)        inactive
5  CCc1c2c(nc3ccc(OC(=O)N4CCC(N5CCCCC5)CC4)cc13)-c1cc3c(c(=O)n1C2)COC(=O)[C@]3(O)CC        inactive
6                         CN(C)C(=N)N=C(N)N        inactive

Endpoint output: AC50 of Cc1nc(-c2ccc(OCC(C)C)c(C#N)c2)sc1C(=O)O . Value?
inactive

Endpoint output: AC50 of Cc1[nH]cnc1CN1CCc2c(c3ccccc3n2C)C1=O . Value?
inactive

Endpoint output: AC50 of COc1cc2ncnc(Nc3ccc(F)c(Cl)c3)c2cc1OCCCN1CCOCC1 . Value?
15.8 µM (active)

====

Test system: DIV14
Assay: qHTS profiling for inhibitors of Plasmodium falciparum proliferation (AID 504749); note: nearly all actives have a fitted effect of over 60% in size; note: potency is the fitted concentration of half-maximal effect
Details: P. falciparum in erythrocytes, SYBR Green DNA, 72 h; series mostly up to 28.7 µM
Inconclusive results are not listed. Active and inactive are the calls of the source. Calls come from the whole dose curve; as a rule, active = well fitted inhibition curve with a large enough effect; inconclusive = small, poorly fitted or top-dose-only effect; inactive = flat fitted curve, though single readings scatter.
QUANTITY NAME: Potency

> print(dat)
                                        mol      result.value
1  O=c1[nH]c2ccccc2n1C1CCN(CCCC(c2ccc(F)cc2)c2ccc(F)cc2)CC1          inactive
2           Cc1ncc(CNC(=O)N(CCCl)N=O)c(N)n1          inactive
3                    c1ccc2c(c1)Nc1ccccc1S2  6.75 µM (active)

====

Conditions: Ebola virus entry assay, green fluorescence channel
Results with a measured potency or affinity are listed apart.
Give efficacy for every item shown.
Report as a plain number; the unit % is understood.

Endpoint output: efficacy of CO/N=C(\C(=O)N[C@@H]1C(=O)N2C(C(=O)O)=C(CSc3nc(=O)c(O)nn3C)CS[C@H]12)c1csc(N)n1 . Value?
11.1

Endpoint output: efficacy of Cc1onc(-c2c(Cl)cccc2Cl)c1C(=O)N[C@@H]1C(=O)N2[C@@H]1SC(C)(C)[C@@H]2C(=O)O . Value?
26.4

Endpoint output: efficacy of CCC1=C[C@@H]2CN(C1)Cc1c([nH]c3ccccc13)[C@@](C(=O)OC)(c1cc3c(cc1OC)N(C)[C@H]1[C@@](O)(C(=O)OC)[C@H](OC(C)=O)[C@]4(CC)C=CCN5CC[C@]31[C@@H]54)C2 . Value?
-100

Endpoint output: efficacy of N[C@@H]1CONC1=O . Value?
-13.4

Endpoint output: efficacy of OCCN1CCN(CCCN2c3ccccc3Sc3ccc(C(F)(F)F)cc32)CC1 . Value?
-98.3

Endpoint output: efficacy of O=[N+]([O-])c1ccc(O)c2ncccc12 . Value?
-18.6

Endpoint output: efficacy of C=C(C)[C@H]1Cc2c(ccc3c2O[C@@H]2COc4cc(OC)c(OC)cc4[C@@H]2C3=O)O1 . Value?
120

Endpoint output: efficacy of Cc1ccccc1N1C(=O)c2cc(S(N)(=O)=O)c(Cl)cc2NC1C (configuration not stated) . Value?
25.2

Endpoint output: efficacy of CC(C)[N+](C)(CCOC(=O)C1c2ccccc2Oc2ccccc21)C(C)C . Value?
-23.3

Endpoint output: efficacy of Cc1ccc(C)c(OCCCC(C)(C)C(=O)O)c1 . Value?
-13.5

Endpoint output: efficacy of CC[C@@H](CO)NC(=O)[C@@H]1C=C2c3cccc4c3c(cn4C)C[C@H]2N(C)C1 . Value?
9.51

Endpoint output: efficacy of C[C@]12CC[C@H]3[C@@H](CCC4=CC(=O)CC[C@@H]43)[C@@H]1CC[C@@H]2OC(=O)CCc1ccccc1 . Value?
-39.3
